# System: SRY-box transcription factor 2 (SOX2) Protein Expression, Deisenroth Lab, SOX2 (gene 6657)
# Protocol Text: CCTE_Deisenroth_DEVTOX-GLR_Meso_SOX2: CCTE's DevTox GLR-Meso Assay Evaluation of SRY-box transcription factor 2 (SOX2) Protein Expression, Deisenroth Lab
Results filed as inconclusive are left out. Active and inactive are the calls of the source. How the source made its calls: active means hit-call score of the fitted dose curve at least 0.9, where 1 is the maximum; inconclusive means response in the unintended direction; inactive means score below 0.9.
Outcomes: active, inactive

[[record]]
compound = "O=c1[nH]cc(F)c(=O)[nH]1"
cat = "active"

[[record]]
compound = "CN(Cc1cnc2nc(N)nc(N)c2n1)c1ccc(C(=O)N[C@@H](CCC(=O)O)C(=O)O)cc1"
cat = "active"

[[record]]
compound = "CC/C(=C(/CC)c1ccc(O)cc1)c1ccc(O)cc1"
cat = "active"

[[record]]
compound = "O=C1NC(=O)C(c2ccccc2)(c2ccccc2)N1"
cat = "active"

[[record]]
compound = "Nc1cccc2c1C(=O)N(C1CCC(=O)NC1=O)C2=O (stereo unspecified)"
cat = "inactive"

[[record]]
compound = "O=C1NS(=O)(=O)c2ccccc21"
cat = "inactive"


Where do the numbers come from? From PubChem BioAssay AID2284419.
